Assay: Half life in human serum at 1 mM incubated for 24 hrs by LC-MS analysis
Format: ADME, cell-free
Where a SMILES comes first, the peptide text is derived from it.
Measured half-life at 1000 µM values are reported for all entries that follow.

molecule	half-life at 1000 µM
CC(C)[C@H](NC(=O)[C@H](CO)NC(=O)[C@H](CCCCN)NC(=O)[C@H](CCCCN)NC(=O)[C@@H](NC(=O)[C@H](CCCCN)NC(=O)[C@H](CCCCN)NC(=O)[C@H](Cc1ccccc1)NC(=O)[C@H](Cc1ccccc1)NC(=O)[C@H](CCCCN)NC(=O)[C@H](CCCCN)NC(=O)[C@H](Cc1ccccc1)NC(=O)[C@H](CCCNC(=N)N)NC(=O)[C@@H](N)CCCCN)C(C)C)C(N)=O (H-KRFKKFFKKVKKSV-NH2)	0.35 h
CC[C@H](C)[C@H](NC(=O)[C@H](CCCCN)NC(=O)[C@H](CCCCN)NC(=O)[C@H](CC(C)C)NC(=O)[C@H](CCCNC(=N)N)NC(=O)[C@H](CCCCN)NC(=O)[C@@H](N)CCCCN)C(=O)N[C@@H](Cc1ccccc1)C(=O)N[C@@H](CCCCN)C(=O)N[C@@H](CCCCN)C(=O)N1CCC[C@H]1C(=O)N[C@@H](CCSC)C(=O)N[C@H](C(=O)N[C@H](C(=O)NCC(=O)N[C@H](C(=O)N[C@H](C(=O)N[C@H](C(=O)N1CCC[C@H]1C(=O)N[C@@H](Cc1ccccc1)C(N)=O)[C@@H](C)CC)[C@H](C)O)C(C)C)[C@@H](C)CC)C(C)C	12.8 h
